The reported measurements were obtained from patent US20150166663A1.

Target: T1, cynomolgus αVβ6 on cells (cynomolgus)
T1 construct: whole, on cells; also called macaque αVβ6; Mac AVB6
Test: FACS, supernatant, HEK-293 cells transfected with cynomolgus αV and β6
Please respond with reported Mac AVB6 % Cells Shifted for every item in the list.

Problem: Fill in: Mac AVB6 % Cells Shifted of sc 133 (antibody, V domains shown, Fully human XenoMouse mAb) VH: QVQLVQSGAEVKKPGASVKVSCKASGYTFTGYYMHWVRQAPGQGLEWMGWINPKSGDTNYAQKFQGRVTLTRDTSTSTAYMELSRLRSDDTAVYYCARRLDVWGQGTTVTVSS VL: QSVLTQPPSVSAAPGQKVTISCSGSSSNIGNNYVSWYQQLPGTAPKLLIYDNNKRPSGIPDRFSGSKSGTSATLGITGLQTGDEADYYCGTWNSSLSAGYVFGTGTKVTV is ___
Result: 32%

Problem: Fill in: Mac AVB6 % Cells Shifted of sc 97 (antibody, V domains shown, Fully human XenoMouse mAb; also called sc 097) VH: EVQLVQSGAEVKKPGESLKISCKGSGYSFTSYWIGWVRQMPGKGLEWMGIIYPGDSDTRYSPSFQGQVILSADKSISTAYLQWSSLKASDTAMYYCARHDESSGYYYVFDIWGQGTMVTVSS VL: SYELTQPPSVSVSPGQTARITCSGDALPKKYAYWYQQKSGQAPVLVIYEDIKRPSGIPERFSGSSSGTMATLTISGAQVEDEADYYCYSTDSSGNHWVFFGGGTKLTVL is ___
Result: 35%

Problem: Fill in: Mac AVB6 % Cells Shifted of sc 298 (antibody, V domains shown, Fully human XenoMouse mAb) VH: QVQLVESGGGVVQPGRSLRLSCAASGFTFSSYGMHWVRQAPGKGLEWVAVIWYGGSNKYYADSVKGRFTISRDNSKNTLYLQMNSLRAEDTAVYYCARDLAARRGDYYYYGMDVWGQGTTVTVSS VL: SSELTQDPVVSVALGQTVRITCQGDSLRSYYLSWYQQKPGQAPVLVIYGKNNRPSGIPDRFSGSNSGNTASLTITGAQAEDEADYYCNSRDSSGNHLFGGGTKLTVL is ___
Result: 53%

Problem: Fill in: Mac AVB6 % Cells Shifted of sc 264 (antibody, V domains shown, Fully human XenoMouse mAb; Has RGD in heavy chain CDR3) VH: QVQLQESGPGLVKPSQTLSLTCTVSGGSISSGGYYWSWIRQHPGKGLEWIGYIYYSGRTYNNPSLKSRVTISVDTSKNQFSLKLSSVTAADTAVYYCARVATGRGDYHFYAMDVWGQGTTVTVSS VL: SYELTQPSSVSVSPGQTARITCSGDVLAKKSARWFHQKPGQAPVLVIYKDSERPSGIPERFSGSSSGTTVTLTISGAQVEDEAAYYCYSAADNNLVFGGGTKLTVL is ___
Result: 55%
